# target.entity: HSP90a protein (Homo sapiens, UniProt P07900)
# Construct: purchased BPS Bioscience 50298
# assay.text: HSP90α-binding fluorescent polarization (FP) assay, BODIPY-labeled RNK04010 probe
# experimental.parameters: FP competition with RNK04010 (BODIPY-labeled), 5 nM, 300 min at 25° C.
pIC50: −log10 of the molar value.
assay.readout: pIC50

>>> reading("C=CC(=O)N1CCN(c2nc(OC[C@@H]3C[C@H](N(C)CCC(=O)N4CCN(Cc5ccc(-n6c(C(=O)NCC(F)(F)F)nnc6-c6cc(C(C)C)c(O)cc6O)cc5)CC4)CN3C)nc3c2CCN(c2cccc4cccc(Cl)c24)C3)C[C@@H]1CC#N [Compound 337]")
"> 7.00"
>>> reading("C=CC(=O)N1CCN(c2nc(OC[C@@H]3CC[C@H](CN4CCN(Cc5ccc(-n6c(O)nnc6-c6cc(C)c(O)cc6O)cc5)CC4)N3C)nc3c2CCN(c2cccc4cccc(Cl)c24)C3)C[C@@H]1CC#N [Compound 227]")
"> 7.00"
>>> reading("C=CC(=O)N1CCN(c2nc(OCC3CCC(CN4CCC(Cc5ccc(-n6c(C(=O)NCC(F)(F)F)nnc6-c6cc(C(C)C)c(O)cc6O)cc5)CC4)N3)nc3c2CCN(c2cccc4cccc(Cl)c24)C3)C[C@@H]1CC#N (stereo partly drawn) [Compound 298]")
"> 7.00"
>>> reading("C=CC(=O)N1CCN(c2nc(OC[C@@H]3C[C@@H](OC(=O)NCc4ccc(-n5c(O)nnc5-c5cc(CC)c(O)cc5O)cc4)CN3C)nc3c2CCN(c2cccc4cccc(Cl)c24)C3)C[C@@H]1CC#N [Compound 295]")
"> 7.00"
>>> reading("CCC(=O)N1CCN(c2nc(NCCC(=O)NCc3ccc(-n4c(O)nnc4-c4cc(CC)c(O)cc4O)cc3F)nc3c2CCN(c2cc(O)cc4ccccc24)C3)CC1 [Compound 34, trifluoroacetic acid]")
"< 6.00"
>>> reading("CC(=O)N1CCN(c2nc(NCCC(=O)N3CCN(Cc4ccc5c(c4)CN(C(=O)c4cc(C(C)C)c(O)cc4O)C5)CC3)nc3c2CCN(c2cc(O)cc4ccccc24)C3)CC1 [Compound 56, trifluoroacetic acid]")
"6.00 to 7.00"
>>> reading("CC(=O)N1CCN(c2nc(NCCC(=O)NCc3ccc(CN4CCC(Cc5ccc(-n6c(C(=O)NCC(F)(F)F)nnc6-c6cc(C(C)C)c(O)cc6O)cc5)CC4)cc3)nc3c2CCN(c2cc(O)cc4ccccc24)C3)CC1 [Compound 54, trifluoroacetic acid]")
"6.00 to 7.00"
>>> reading("C=CC(=O)N1CCN(c2nc(NCCC(=O)NCc3ccc(CN4CCC(Cc5ccc(-n6c(C(=O)NCC(F)(F)F)nnc6-c6cc(C(C)C)c(O)cc6O)cc5)CC4)cc3)nc3c2CCN(c2cccc4ccccc24)C3)C[C@H]1CC#N [Compound 95, trifluoroacetic acid]")
"6.00 to 7.00"
>>> reading("C=CC(=O)N1CCN(c2nc(OC[C@@H]3C[C@@H](NC(=O)C4CCN(Cc5ccc(-n6c(C(N)=O)nnc6-c6cc(C(C)C)c(O)cc6O)cc5)CC4)CN3C)nc3c2CCN(c2cccc4cccc(Cl)c24)C3)C[C@@H]1CC#N [Compound 194]")
"> 7.00"

====

# target.entity: KRAS(G12C) (Homo sapiens, UniProt P01116, G12C)
# Sequence (P01116 1-188 isoform P01116-2 G12C): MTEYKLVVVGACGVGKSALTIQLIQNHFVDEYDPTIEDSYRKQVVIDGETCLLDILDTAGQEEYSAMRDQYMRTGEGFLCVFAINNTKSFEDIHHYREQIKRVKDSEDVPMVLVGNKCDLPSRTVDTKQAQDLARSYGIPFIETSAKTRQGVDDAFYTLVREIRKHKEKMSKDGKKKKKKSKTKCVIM
# assay.text: KRAS(G12C)/SOS1 homogeneous time-resolved fluorescence (HTRF) assay
# experimental.parameters: absence of GTP, 4° C. for 3 hr, read-out: KRAS (G12C) binding
assay.readout: IC50

>>> reading("C=CC(=O)N1CCN(c2nc(OC[C@@H]3C[C@H](N4CCC(C(=O)N5CCN(Cc6ccc(-n7c(O)nnc7-c7cc(C(C)C)c(O)cc7O)cc6)CC5)CC4)CN3C)nc3c2CCN(c2cccc4ccccc24)C3)C[C@@H]1CC#N [Compound 246]")
"< 100 nM"
>>> reading("C=CC(=O)N1CCN(c2nc(OC[C@@H]3CC[C@H](CN4CCN(Cc5ccc(-n6c(C(=O)NCC)nnc6-c6cc(C(C)C)c(O)cc6O)cc5)CC4)N3C)nc3c2CCN(c2cccc4cccc(C)c24)C3)C[C@@H]1CC#N [Compound 289]")
"< 100 nM"
>>> reading("C=CC(=O)N1CCN(c2nc(OCCN3CCC(C(=O)N4CCN(Cc5ccc(-n6c(C(=O)NCC(F)(F)F)nnc6-c6cc(C)c(O)cc6O)cc5)CC4)CC3)nc3c2CCN(c2cccc4cccc(Cl)c24)C3)C[C@@H]1CC#N [Compound 251]")
"< 100 nM"
>>> reading("C=CC(=O)N1CCN(c2nc(OC[C@@H]3C[C@H](N4CCN(CC5CCN(Cc6ccc7c(c6)CN(C(=O)c6cc(C(C)C)c(O)cc6O)C7)CC5)CC4)CN3C)nc3c2CCN(c2cccc4cccc(Cl)c24)C3)C[C@@H]1CC#N [Compound 290]")
"< 100 nM"
>>> reading("C=CC(=O)N1CCN(c2nc(OC[C@@H]3CCN(C(=O)c4cc(C(C)C)c(OC)cc4O)C3)nc3c2CCN(c2cccc4cccc(Cl)c24)C3)C[C@@H]1CC#N [Compound 159]")
"> 1000 nM"
>>> reading("C=C(F)C(=O)N1CCN(c2nc(OC[C@@H]3CC[C@H](CN4CCN(Cc5ccc(-n6c(O)nnc6-c6cc(C(C)C)c(O)cc6O)cc5)CC4)N3C)nc3c2CCN(c2cccc4ccccc24)C3)C[C@@H]1CC#N [Compound 286]")
"100 to 1000 nM"
>>> reading("C=CC(=O)N1CCN(c2nc(OC[C@@H]3C[C@H](N4CCN(C(=O)C5CCN(Cc6ccc(-n7c(O)nnc7-c7cc(C)c(O)cc7O)cc6)CC5)CC4)CN3C)nc3c2CCN(c2cccc4cccc(Cl)c24)C3)C[C@@H]1CC#N [Compound 265]")
"< 100 nM"
>>> reading("C=CC(=O)N1CCN(c2nc(OC[C@@H]3C[C@@H](NCc4ccc(-n5c(O)nnc5-c5cc(C(C)C)c(O)cc5O)cc4)CN3C)nc3c2CCN(c2cccc4cccc(Cl)c24)C3)C[C@@H]1CC#N [Compound 215]")
"100 to 1000 nM"
>>> reading("C=CC(=O)N1CCN(c2nc(OC[C@@H]3C[C@H](N4CCC(C(=O)N5CCN(Cc6ccc(-n7c(C(=O)NCC(F)(F)F)nnc7-c7cc(C(C)C)c(O)cc7O)cc6)CC5)CC4)CN3C)nc3c2CCN(c2cccc4cccc(Cl)c24)C3)C[C@@H]1CC#N [Compound 314]")
"< 100 nM"
>>> reading("C=CC(=O)N1CCN(c2nc(OCCN3CCN(Cc4cc(C(C)C)c(O)cc4O)CC3)nc3c2CCN(c2cccc4cccc(Cl)c24)C3)C[C@@H]1CC#N [Compound 216]")
"< 100 nM"
